Values compiled from paper PMC8942522.

- Test system: TcTryS (Trypanosoma cruzi, UniProt Q9GT49)
- Experimental protocol: TryS inhibition assay
- Assay type: biochemical
- Recorded conditions: 25 μM; mean ± SD; NA = not active (inhibition ≤ 0.0 ± 5.0%)
Parameter: % TryS inhibition at 25 μM, T. cruzi (%)

[[record]]
compound = "O=C(O)c1cc[c]([Hg][Cl])cc1"
unit_name = "%"
result_value = 32.0


[a] CCCC[P+](CCCC)(CCCC)Cc1ccc(NC(=O)[C@H](Cc2ccc3ccccc3c2)NC(=NC2CCCCC2)NC2CCCCC2)cc1.Cl.[Cl-] [Compound 13, WIN 64338 hydrochloride]
[b] O=C(CCc1c(-c2ccc(F)cc2)[nH]c2ccc(F)cc12)N1CCN(c2ccncc2)CC1
Prompt line: For the pair a and b , which entry has the numerically smaller recorded % TryS inhibition at 25 μM, T. cruzi? State your choice using its label.
Response line: b
(b: 7.1%, a: 25.9%)

====

// IC50 lookup, one value per entry
- Test system: TcTryS (Trypanosoma cruzi)
- Sequence (Q9GT49 1-647): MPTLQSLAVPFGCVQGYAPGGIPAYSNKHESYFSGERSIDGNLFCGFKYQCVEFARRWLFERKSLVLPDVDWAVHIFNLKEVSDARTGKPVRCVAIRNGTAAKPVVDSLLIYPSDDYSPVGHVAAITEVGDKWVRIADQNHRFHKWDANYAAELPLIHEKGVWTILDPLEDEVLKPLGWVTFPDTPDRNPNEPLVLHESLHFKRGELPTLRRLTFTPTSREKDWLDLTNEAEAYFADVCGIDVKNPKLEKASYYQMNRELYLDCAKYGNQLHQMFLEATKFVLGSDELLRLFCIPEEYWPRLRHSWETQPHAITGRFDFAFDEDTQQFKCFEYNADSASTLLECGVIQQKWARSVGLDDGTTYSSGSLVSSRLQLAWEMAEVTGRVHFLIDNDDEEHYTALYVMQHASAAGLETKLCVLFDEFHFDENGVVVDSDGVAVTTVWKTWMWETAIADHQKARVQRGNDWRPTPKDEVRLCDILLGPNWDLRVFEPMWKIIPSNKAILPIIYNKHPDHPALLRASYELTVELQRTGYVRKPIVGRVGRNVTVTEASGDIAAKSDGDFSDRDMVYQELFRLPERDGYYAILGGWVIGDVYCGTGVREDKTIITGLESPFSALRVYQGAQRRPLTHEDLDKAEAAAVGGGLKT
Reply numerically in µM, unit not repeated.

[[record]]
compound = "C[n+]1cc2c3c(ccc2c2ccc4cc5c(cc4c21)OCO5)OCO3 [Compound 6, Sanguinarine chloride]"
result_value = 40

[[record]]
compound = "O=c1c2ccccc2[se]n1-c1ccccc1 [Compound 5, Ebselen]"
result_value = 13.8


Please examine the following record next.
Prompt line: Determine from records and report IC50 for Clc1ccc(C(c2ccc(Cl)cc2)n2cc[n+](CC(OCc3ccc(Cl)cc3Cl)c3ccc(Cl)cc3Cl)c2)cc1 (stereo not drawn) [Compound 7, Calmidazolium chloride]
Response line: 2.7

====

- Test system: LiTryS (Leishmania infantum)
- Sequence (A4I2Z3 1-652): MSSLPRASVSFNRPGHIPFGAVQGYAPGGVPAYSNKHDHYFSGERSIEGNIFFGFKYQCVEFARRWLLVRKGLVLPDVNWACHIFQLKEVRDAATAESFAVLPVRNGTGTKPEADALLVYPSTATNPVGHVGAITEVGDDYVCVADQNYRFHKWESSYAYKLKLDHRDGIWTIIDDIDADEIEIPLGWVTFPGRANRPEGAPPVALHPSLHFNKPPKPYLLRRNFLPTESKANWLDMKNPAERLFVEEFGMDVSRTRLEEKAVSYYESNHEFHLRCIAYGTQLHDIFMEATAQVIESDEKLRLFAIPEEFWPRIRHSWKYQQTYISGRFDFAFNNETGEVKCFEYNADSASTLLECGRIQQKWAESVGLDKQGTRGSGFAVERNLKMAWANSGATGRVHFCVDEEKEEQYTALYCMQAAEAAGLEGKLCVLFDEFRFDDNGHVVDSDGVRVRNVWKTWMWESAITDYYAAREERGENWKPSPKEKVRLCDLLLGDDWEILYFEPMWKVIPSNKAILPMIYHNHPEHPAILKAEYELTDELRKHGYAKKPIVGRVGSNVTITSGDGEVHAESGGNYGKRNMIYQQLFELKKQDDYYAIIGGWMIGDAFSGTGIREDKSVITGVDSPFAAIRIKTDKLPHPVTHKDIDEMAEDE
- Experimental protocol: TryS inhibition assay
- Type: biochemical
- Recorded conditions: mean ± SD, NA = not active (inhibition ≤ 0.0 ± 5.0%)
Parameter: % TryS inhibition at 25 μM, L. infantum (%)

[P] CCCC[P+](CCCC)(CCCC)Cc1ccc(NC(=O)[C@H](Cc2ccc3ccccc3c2)NC(=NC2CCCCC2)NC2CCCCC2)cc1.Cl.[Cl-] [Compound 13, WIN 64338 hydrochloride]
[Q] Cc1nc(C(=O)N2CCCC2c2ccc(F)c(F)c2)c(=O)[nH]c1C (stereo not shown)
[R] O=C(CCc1c(-c2ccc(F)cc2)[nH]c2ccc(F)cc12)N1CCN(c2ccncc2)CC1
[S] N=C1Sc2ccccc2C2=NCCCN12
Prompt line: Form: Sort by [% TryS inhibition at 25 μM, L. infantum] Order [ ascending ] Provide the labels, sequenced as the question asks.
Response line: S, R, Q, P

====

- Test system: intracellular amastigotes of T. cruzi
- Experimental protocol: Intracellular T. cruzi in U-2 OS cells
- Type: cell-based, T. cruzi (strain Y)
- Recorded conditions: read-out: Cytotoxicity EC50 T. cruzi; intracellular amastigotes in U-2 OS, 72 h
Parameter: EC50 (nM)
Reply numerically in nM, unit not repeated.

Prompt line: Determine from records and report EC50 for Clc1ccc(C(c2ccc(Cl)cc2)n2cc[n+](CC(OCc3ccc(Cl)cc3Cl)c3ccc(Cl)cc3Cl)c2)cc1 (stereo not drawn) [Compound 7, Calmidazolium chloride]
Response line: 1600

Prompt line: Determine from records and report EC50 for C[n+]1cc2c3c(ccc2c2ccc4cc5c(cc4c21)OCO5)OCO3 [Compound 6, Sanguinarine chloride]
Response line: 370

Prompt line: Determine from records and report EC50 for `O=c1c2ccccc2[se]n1-c1ccccc1`
Response line: 2800

====

- Test system: TcTryS (Trypanosoma cruzi, UniProt Q9GT49)
- Experimental protocol: TryS inhibition assay
- Format: biochemical
- Recorded conditions: 25 μM; mean ± SD; NA = not active (inhibition ≤ 0.0 ± 5.0%)
Parameter: % TryS inhibition at 25 μM, T. cruzi (%)

[[record]]
compound = "CCN(CC)C(=O)COC(=O)c1c(NC(C)=O)sc2c1CCCC2 [Compound 19]"
result_value = 13.3

[[record]]
compound = "N=C1Sc2ccccc2C2=NCCCN12 [Compound 9, PD 404,182]"
result_value = 10.9

[[record]]
compound = "O=C1Cc2cc(-c3csc(NCCc4cccs4)n3)cc3c2N1CCC3 [Compound 22]"
result_value = 12.9

